system: COLO 205; experiment: NCI tumour cell line growth inhibition, 48 h
Activity calls are given as the source filed them. Cut-off read from the data, not from the text of the source: active = GI50 up to about 1.1 µM and inactive = higher.

{"compound": "COc1ccc(C(=CCC(C)C2CCC3[C@@H]4C(OC(C)=O)CC5CC(OC(C)=O)CC[C@]5(C)C4CC(OC(C)=O)[C@]23C)c2ccc(OC)cc2)cc1 (stereo partly specified)", "GI50": "> 100 µM (inactive)"}
{"compound": "O=C1Nc2c(ccc(Cl)c2I)C1=O", "GI50": "16.3 µM (inactive)"}
{"compound": "O=C1[C@H](O)[C@@H]2C(O)O[C@H]3[C@@H]2N1C[C@H]3[Si](c1ccccc1)(c1ccccc1)c1ccccc1 (stereo partly specified)", "GI50": "> 100 µM (inactive)"}
{"compound": "COc1ccc(N2C(=O)C3CC(c4ccc(C)cc4)c4c([nH]c5ccccc45)C3C2=O)cc1 (stereo unspecified)", "GI50": "20.7 µM (inactive)"}
{"compound": "CCOC1=C2N=C(C(CC)c3ccccc3F)N=C2C(=O)c2ccccc21 (stereo unspecified)", "GI50": "> 100 µM (inactive)"}
{"compound": "CN(C)CCCNc1c2c(=O)n(C)c(=O)nc-2n(C)c2ccccc12", "GI50": "3.21 µM (inactive)"}
